# Tested on: T1, human ferroportin (SLC40A1) fused in frame with GFP, stably expressed in HEK293 cells (human, UniProt Q9NP59 1-571)
# T1 sequence (looked up): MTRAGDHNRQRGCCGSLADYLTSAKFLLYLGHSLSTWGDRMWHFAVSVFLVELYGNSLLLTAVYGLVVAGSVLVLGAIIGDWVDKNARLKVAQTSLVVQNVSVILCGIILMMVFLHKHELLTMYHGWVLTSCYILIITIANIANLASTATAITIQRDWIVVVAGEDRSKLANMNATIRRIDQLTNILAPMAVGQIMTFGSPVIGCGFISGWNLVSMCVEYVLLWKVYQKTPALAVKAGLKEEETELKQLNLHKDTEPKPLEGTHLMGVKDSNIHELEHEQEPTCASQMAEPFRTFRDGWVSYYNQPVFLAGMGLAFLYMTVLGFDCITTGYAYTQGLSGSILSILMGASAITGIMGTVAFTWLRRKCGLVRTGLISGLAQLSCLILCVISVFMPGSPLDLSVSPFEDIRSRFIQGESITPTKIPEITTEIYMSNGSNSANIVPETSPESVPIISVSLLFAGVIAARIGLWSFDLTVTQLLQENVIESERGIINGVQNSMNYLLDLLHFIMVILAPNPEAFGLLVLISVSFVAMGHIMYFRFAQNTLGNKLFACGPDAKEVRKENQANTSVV
# Experiment description: cell-based or functional assay
* marks the point of attachment. Isovaleryl = CC(C)CC(=O)*
Parameter: EC50 (nM) (n = 3)

{"columns": ["Binder", "EC50 (nM) (n = 3)"],
 "data": [
  ["H-DTKFPCIIF-NH2 (also: homodimer via disulfide between Cys6 of each monomer) [Compound 317]", "137 nM"],
  ["H-DTHFPCIEK-NH2 (also: homodimer via disulfide between Cys6 of each monomer) [Compound 323]", "> 1000 nM"],
  ["H-DTHFPCILK-NH2 [Compound 309]", "> 300 nM"],
  ["H-DTHFPCIIR-NH2 [Compound 305]", "> 1000 nM"],
  ["H-DTKFPCIIF-NH2 [Compound 302]", "> 1000 nM"]
]}

# next binder below
Find the recorded EC50 (nM) (n = 3) belonging to Isovaleryl-DTHFPCIKF-NH2 (also: homodimer via disulfide between Cys6 of each monomer) [Compound 326] and report it.
3 nM
